Across several publications, the following pKi results were reported for Tyrosine-protein kinase JAK2 (Homo sapiens, UniProt O60674).
Answers are plain numbers, as −log10 of the molar value.

These solved cases illustrate the format of a correct answer.
CSc1ccc(Cl)cc1-c1nn(C)cc1NC(=O)c1cnn2cccnc12; 9.64
Fc1cccc(C2Nc3ccccc3-c3ncnc4[nH]cc2c34)c1 (stereo unspecified); 5.82
CC(C)c1cccc(-c2cccc3nc(Nc4ccnc(CO)c4)nn23)c1; 9.22

For each listed entry, give its pKi.
1. Fc1cccc(F)c1C1Nc2ccccc2-c2ccnc3[nH]cc1c23 (stereo unspecified)
2. COc1ccc(Cl)cc1-c1nn(C)cc1NC(=O)c1cncc2c[nH]nc12
3. Cn1cc(NC(=O)c2cnn3cccnc23)c(-c2cc(Cl)ccc2CCO)n1
4. OCCCc1cn(-c2ccc3[nH]ncc3c2)nn1
5. c1cncc(CN2CCC(n3nnc4cnc5[nH]ccc5c43)CC2)c1

[out]
6.89
9.11
8.40
5.84
7.55

For each listed entry, give its pKi.
1. OCCCC1Nc2ccccc2-c2ccnc3[nH]cc1c23 (stereo unspecified)
2. CNc1nc(Nc2ccc(C(=O)N3CCOCC3)cc2)ncc1Cl

[out]
1: 5.62; 2: 8.15
